Tested on: OVCAR-5 ovarian
test: NCI-60 one-dose screen, 48 h (100 = growth as untreated, 0 = no growth, -100 = all killed)
assay conditions: 10 µM unless noted
About 83,000 compounds went through this panel and 20% of them were active in at least one assay; those are over-represented in the sample as a whole.
endpoint name: growth (%)
Write the value in % as a bare number.

Sample answers from the record:
Fill in growth for record `Cc1cccc(N=C2c3cc([N+](=O)[O-])ccc3-c3c2cc([N+](=O)[O-])cc3[N+](=O)[O-])c1`
99.4

Complete the entry with growth for `S=P(N1CCCCCC1)(N1CC1)N1CC1`
107

Provide only the value of recorded growth for `CC1(C)CC2(CC(C)(C)c3cc(O)c(O)cc32)c2cc(O)c(O)cc21`
93

More entries:
Please look at this compound and report its growth: `CC[C@]12C=CCN3CC[C@@]4(c5ccc(OC)cc5N(C)[C@H]4[C@@](O)(C(=O)OC)[C@@H]1OC(=O)CCCN1CCN(CCCC(=O)O[C@@H]4[C@]5(CC)C=CCN6CC[C@@]7(c8ccc(OC)cc8N(C)[C@H]7[C@@]4(O)C(=O)OC)[C@@H]65)CC1)[C@@H]32`
-87.8

Fill in reported growth for this entry: `Nc1c(Br)cc([N+](=O)[O-])cc1[N+](=O)[O-]`
106

Provide only the value of recorded growth for CCCCCCCCCCOc1ccc(C(=O)Oc2ccc(CSP3(=O)OCC4OC(n5ccc(=O)[nH]c5=O)C(F)C4OP(=O)(O)OCC4OC(n5cnc6c(N)ncnc65)C(F)C4O3)cc2)cc1 (stereo unspecified)
116

Please indicate growth recorded for `CCOC(=O)C1(c2ccccc2)CCN(CC(=O)c2ccc(NC(C)=O)cc2)CC1`
100

Quick one: give measured growth for `C[CH2][Pb]([CH2]C)([CH2]C)[O]C(=O)COC`
-4.48

Look up growth of `CC(C)(O)/C=C/C(=O)[C@](C)(O)[C@H]1[C@H](O)C[C@@]2(C)[C@@H]3CC=C4[C@@H](C=C(O)C(=O)C4(C)C)[C@]3(C)C(=O)C[C@]12C` and report it.
-3.44

Identify measured growth corresponding to `Oc1ccc(O)c2c1C1(Cl)C(Cl)=C(Cl)C2(Cl)C1(Cl)Cl`
70.1

Dear colleague, please send me the reported growth for `S=P(Nc1ccccc1)(Nc1ccccc1)c1ccccc1` when you can.
99.6

In one line, give reported growth of the entry O=S(=O)(Cl)c1ccccc1 (tested in a mixture with another compound) .
93.7

====

System: HL-60(TB) leukemia
test: NCI-60 one-dose screen, 48 h (100 = growth as untreated, 0 = no growth, -100 = all killed)
assay conditions: 10 µM unless noted
Compounds without any hit were thinned out: in the full panel of roughly 83,000, 20% have a hit. Activity calls are given as the source filed them. How the source made its calls: active means growth percent below 10; inactive means the rest.
endpoint name: growth

These solved cases illustrate the format of a correct answer.
Answer with the recorded growth for the compound listed here: `CN1CCN(c2nc(-c3cccnc3)nc3sc4c(c23)CCCCCC4)CC1`
87.2% (inactive)

Using known records, supply growth for O=C(NC1CCCCC1)C(c1cccs1)N(CCc1ccccc1)C(=O)c1ccco1 (configuration not stated)
100% (inactive)

Output measured growth for this item: `CC(=O)N(CCCCCCN(C(C)=O)C(C)=O)C(C)=O`
108% [100 µM] (inactive)

Entry `COc1cc(/C=N/NC(=S)NNC(=S)NC2CCCCC2)cc(OC)c1OC` needs its growth filled in; supply it.
104% (inactive)

Supply growth value. Item: `Cc1cc2nc3c4ccccc4n(CCN(C)C)c3nc2cc1C`
8.35% (active)

Look up and report measured growth for this entry: `COc1ccc(Cl)cc1Nc1nc(C(F)(F)F)ccc1C(=O)N/N=C/c1cccnc1`
21.8% (inactive)

# return recorded growth for input COC1(CC[C@@H](C)COC2OC(CO)C(O)C(O)C2O)O[C@H]2C[C@H]3[C@@H]4CC=C5C[C@@H](OC6OC(CO)C(OC7OC(C)C(O)C(O)C7O)C(O)C6OC6OC(C)C(O)C(O)C6O)CC[C@]5(C)[C@H]4CC[C@]3(C)[C@H]2[C@@H]1C (some centres not stated)
27.1% (inactive)

Tell us which growth value is on record for CCN1CCCC(Nc2cc(C)nc(/N=C(/N)Nc3ccc(Cl)c(Cl)c3)n2)C1 (configuration not stated)
-42.7% (active)

Given the compound `O=C(CCc1nnc2sc(-c3cc(O)c(O)c(O)c3)nn12)c1nc2ccccc2[nH]1` , write its reported growth.
100% (inactive)

Identify the reported growth for the following entry. `O=c1[nH]c(-c2cccc(F)c2)cc2cc(F)ccc12`
-24.6% (active)

---
Output measured growth for this item: `CCCCCCNC(=O)Oc1ccc(/C(=C(/CC)Cc2ccccc2)c2ccc(OCCCN(C)C)cc2)cc1`
64.2% (inactive)

Return growth (reported value) for this compound: `NS(=O)(=O)Oc1ccc(NC(=O)C23CC4CC(CC(C4)C2)C3)cc1Cl`
100% (inactive)

Tell me measured growth for `COc1cccc(-c2ccc3c(c2)NC(=O)/C3=C\c2ccc[nH]2)c1` please.
-1.26% (active)

Quick one: give measured growth for `CCCc1nn(C)c2c(=O)[nH]c(-c3cc(S(=O)(=O)N4CCN(C)CC4)ccc3OCC)nc12`
114% (inactive)

Output measured growth for this item: `O=S(=O)(O)c1ccc(-c2ccc([As](=O)(O)O)cc2)cc1`
102% (inactive)

Tell me growth reported for `O=C(Nc1ccccc1O)c1ccc(CNC(=O)c2ccsc2Nc2ccnc(C(F)(F)F)c2)cc1`
7.44% (active)

Look up and report measured growth for this entry: `OC(Cc1cc(CC(O)(C(F)(F)F)C(F)(F)F)nc(CC(O)(C(F)(F)F)C(F)(F)F)c1)(C(F)(F)F)C(F)(F)F`
-24.5% (active)

# return recorded growth for entry `COc1cc(C(=O)N2CCN(C(=O)c3ccco3)CC2)c(N)cc1OCc1ccccc1`
99.8% (inactive)

Return the recorded growth value; entry: `CC(=O)NCCSC(=O)C(=O)SCCNC(C)=O`
83.6% (inactive)

Given CCSCC1CC(O)(c2ccccc2)CC(c2ccc(F)cc2)O1 (configuration not stated) , respond with its growth.
-31.9% (active)

Quick one: give measured growth for `CCCCOc1nc2ccc(OC)cc2cc1-c1cc(-c2ccc(Cl)cc2)nc(-c2ccc(Cl)cc2)c1`
103% (inactive)

Quickly give me recorded growth for `CCOc1ccc2nc(SCc3nc4n(n3)S(=O)(=O)c3ccccc3N4C)sc2c1`
12.9% (inactive)

Provide one value: measured growth of COc1ccc(COc2cc3oc(=O)c4cc(C(C)O)ccc4c3cc2OC)cc1 (configuration not stated)
73.1% (inactive)

Give the reported value of growth for this record: COc1cc(C2C3=C(COC3=O)N(CCO)c3cc4c(cc32)OCO4)cc(OC)c1O (configuration not stated)
4.08% (active)

Check the records and state growth for `CC[n+]1c(/C=C/C=C2\N(C)c3ccccc3C2(C)C)sc2ccccc21`
-30.3% (active)

The origin of these recorded values is PubChem BioAssay (NCI).
